# experimentalTarget: T1, human GIP receptor (GIPR) (human), P48546
# T1 chain: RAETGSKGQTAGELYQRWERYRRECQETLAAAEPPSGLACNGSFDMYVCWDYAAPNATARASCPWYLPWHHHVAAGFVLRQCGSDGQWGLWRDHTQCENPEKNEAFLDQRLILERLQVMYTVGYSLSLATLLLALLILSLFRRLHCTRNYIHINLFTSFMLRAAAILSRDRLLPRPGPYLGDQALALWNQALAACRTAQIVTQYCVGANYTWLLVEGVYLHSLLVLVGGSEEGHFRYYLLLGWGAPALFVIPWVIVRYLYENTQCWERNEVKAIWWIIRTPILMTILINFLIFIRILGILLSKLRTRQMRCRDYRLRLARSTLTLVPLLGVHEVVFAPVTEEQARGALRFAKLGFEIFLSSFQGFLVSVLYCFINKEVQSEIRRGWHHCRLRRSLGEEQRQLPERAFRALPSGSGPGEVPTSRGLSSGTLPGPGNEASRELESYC
# assayOverview: competition
# testContext: modification not given
propertyLabel: pIC50
Notebook: values listed as pIC50 are -log10 of the concentration (mol/L).

Exercise: I am curious: what pIC50 value has been reported for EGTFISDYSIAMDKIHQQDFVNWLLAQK [GIP(3-30)NH2] ?
Key: 9.12

The reported measurements were obtained from patent US20180258152.
